- TARGET UNDER TEST: pig kidney fucokinase (Sus scrofa, UniProt I3LTC2)
- Construct: L-Fucokinase was purified to apparent homogeneity from the cytosolic fraction of pig kidney; from tissue; host or cells: pig kidney, cytosolic fraction
- ASSAY EXPLANATION: Sugar specificity of purified fucokinase (radiolabeled sugars as phosphate acceptors)
- Type: biochemical
- RECORDED CONDITIONS: radiolabeled sugar 100 μM as phosphate acceptor
QUANTITY KIND: Specific Activity

INSERT INTO assay_data (chemical_structure, quantity_kind, readout_value) VALUES
  ('O=C[C@@H](O)[C@H](O)[C@H](O)CO', 'Specific Activity', '1.1 nmole/mg protein'),
  ('O=C[C@@H](O)[C@@H](O)[C@H](O)[C@H](O)CO', 'Specific Activity', '0 nmole/mg protein'),
  ('O=C[C@H](O)[C@@H](O)[C@H](O)CO', 'Specific Activity', '0 nmole/mg protein'),
  ('O=C[C@H](O)[C@@H](O)[C@H](O)[C@H](O)CO', 'Specific Activity', '0.3 nmole/mg protein'),
  ('C[C@H](O)[C@@H](O)[C@@H](O)[C@H](O)C=O', 'Specific Activity', '11.8 nmole/mg protein'),
  ('O=C[C@H](O)[C@@H](O)[C@@H](O)[C@H](O)CO', 'Specific Activity', '0 nmole/mg protein'),
  ('O=C[C@H](O)[C@H](O)[C@H](O)CO', 'Specific Activity', '0 nmole/mg protein');

---

- TARGET UNDER TEST: pig kidney fucokinase (Sus scrofa, UniProt I3LTC2)
- Construct: L-Fucokinase was purified to apparent homogeneity from the cytosolic fraction of pig kidney; from tissue; host or cells: pig kidney, cytosolic fraction
- ASSAY EXPLANATION: Sugar specificity of purified fucokinase (radiolabeled sugars as phosphate acceptors)
- Type: biochemical
- RECORDED CONDITIONS: purified enzyme
QUANTITY KIND: activity as phosphate acceptor (in words)

INSERT INTO assay_data (molecule, readout_value) VALUES
  ('O=C[C@H](O)[C@@H](O)[C@@H](O)[C@H](O)CO [D-galactose]', 'does not phosphorylate'),
  ('O=C[C@H](O)[C@@H](O)[C@H](O)[C@H](O)CO [D-glucose]', 'does not phosphorylate'),
  ('O=C[C@@H](O)[C@@H](O)[C@H](O)[C@H](O)CO [D-mannose]', 'does not phosphorylate');

---

- TARGET UNDER TEST: pig kidney fucokinase (Sus scrofa, UniProt I3LTC2)
- Sequence (I3LTC2 1-1083): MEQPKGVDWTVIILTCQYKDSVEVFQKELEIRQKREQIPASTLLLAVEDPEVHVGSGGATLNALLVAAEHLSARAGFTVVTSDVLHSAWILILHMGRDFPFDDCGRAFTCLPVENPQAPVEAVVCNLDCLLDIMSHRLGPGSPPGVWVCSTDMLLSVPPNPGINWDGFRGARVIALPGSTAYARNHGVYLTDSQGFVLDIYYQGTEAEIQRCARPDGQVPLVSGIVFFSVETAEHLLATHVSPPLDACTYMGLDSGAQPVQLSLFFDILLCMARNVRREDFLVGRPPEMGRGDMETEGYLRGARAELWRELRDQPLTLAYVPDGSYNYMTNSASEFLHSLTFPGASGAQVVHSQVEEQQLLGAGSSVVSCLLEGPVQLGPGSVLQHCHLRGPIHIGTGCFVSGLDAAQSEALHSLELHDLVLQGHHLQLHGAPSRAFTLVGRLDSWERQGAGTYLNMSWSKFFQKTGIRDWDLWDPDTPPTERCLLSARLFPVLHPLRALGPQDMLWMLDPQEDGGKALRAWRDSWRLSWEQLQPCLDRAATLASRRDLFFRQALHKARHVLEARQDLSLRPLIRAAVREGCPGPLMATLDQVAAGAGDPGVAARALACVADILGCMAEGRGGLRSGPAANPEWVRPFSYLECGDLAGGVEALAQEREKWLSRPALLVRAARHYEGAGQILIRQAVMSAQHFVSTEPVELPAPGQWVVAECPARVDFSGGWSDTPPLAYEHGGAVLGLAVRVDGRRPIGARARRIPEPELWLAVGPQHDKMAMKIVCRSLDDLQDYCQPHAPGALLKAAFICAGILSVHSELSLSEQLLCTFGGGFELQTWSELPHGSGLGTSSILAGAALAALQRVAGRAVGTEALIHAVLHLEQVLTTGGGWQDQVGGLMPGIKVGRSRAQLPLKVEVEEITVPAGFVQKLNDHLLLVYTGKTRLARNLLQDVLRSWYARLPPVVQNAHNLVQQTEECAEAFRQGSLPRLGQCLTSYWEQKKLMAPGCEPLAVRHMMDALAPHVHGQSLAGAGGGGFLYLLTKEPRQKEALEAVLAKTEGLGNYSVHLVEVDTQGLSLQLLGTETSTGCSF
QUANTITY KIND: Ki

INSERT INTO measurements (chemical_structure, readout_value) VALUES
  ('C[C@@H]1O[C@H](OP(=O)(O)OP(=O)(O)OC[C@H]2O[C@@H](n3cnc4c(=O)[nH]c(N)nc43)[C@H](O)[C@@H]2O)[C@@H](O)[C@H](O)[C@@H]1O', '~10 µM');
